The origin of these recorded values is patent US20100311729A1.

- study_system: PI3K beta (Homo sapiens, UniProt P42338)
- Construct: for the full-length p110-b subunit are generated and fused by overlapping PCR; His tag (C); Tn5 (Trichoplusia ni) or TiniPro insect cells
- Sequence (P42338 with tags, fused parts or gaps limits assumed): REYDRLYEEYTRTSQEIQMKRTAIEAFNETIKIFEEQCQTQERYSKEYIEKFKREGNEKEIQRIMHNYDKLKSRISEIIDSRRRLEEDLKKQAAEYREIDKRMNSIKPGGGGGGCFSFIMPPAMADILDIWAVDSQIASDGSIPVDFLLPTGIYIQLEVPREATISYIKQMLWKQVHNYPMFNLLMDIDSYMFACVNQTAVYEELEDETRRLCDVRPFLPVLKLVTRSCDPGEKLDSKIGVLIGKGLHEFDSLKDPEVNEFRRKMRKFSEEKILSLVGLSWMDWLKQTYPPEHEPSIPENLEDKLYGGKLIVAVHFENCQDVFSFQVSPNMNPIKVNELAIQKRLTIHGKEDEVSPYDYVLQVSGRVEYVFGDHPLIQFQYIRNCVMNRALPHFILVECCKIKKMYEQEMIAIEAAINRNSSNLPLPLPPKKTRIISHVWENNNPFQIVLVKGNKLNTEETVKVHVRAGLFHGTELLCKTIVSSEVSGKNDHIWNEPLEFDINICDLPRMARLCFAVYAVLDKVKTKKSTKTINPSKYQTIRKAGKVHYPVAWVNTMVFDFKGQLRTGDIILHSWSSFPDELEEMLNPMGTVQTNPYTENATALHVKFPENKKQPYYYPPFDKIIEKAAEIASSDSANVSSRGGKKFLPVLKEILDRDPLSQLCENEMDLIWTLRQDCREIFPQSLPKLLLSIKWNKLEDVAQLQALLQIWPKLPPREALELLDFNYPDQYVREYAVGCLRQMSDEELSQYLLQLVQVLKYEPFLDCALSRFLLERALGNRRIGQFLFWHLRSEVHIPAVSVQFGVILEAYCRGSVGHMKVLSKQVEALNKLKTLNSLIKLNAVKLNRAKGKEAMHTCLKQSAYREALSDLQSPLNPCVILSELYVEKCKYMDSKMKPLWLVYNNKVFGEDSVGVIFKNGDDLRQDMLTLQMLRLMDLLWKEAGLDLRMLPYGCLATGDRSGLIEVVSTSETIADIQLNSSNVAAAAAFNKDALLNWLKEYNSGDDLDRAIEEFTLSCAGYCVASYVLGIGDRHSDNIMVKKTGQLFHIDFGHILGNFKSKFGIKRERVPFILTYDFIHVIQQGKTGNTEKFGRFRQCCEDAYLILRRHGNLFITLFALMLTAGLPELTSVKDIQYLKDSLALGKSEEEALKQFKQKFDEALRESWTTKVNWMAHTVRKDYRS
- experimental_details: PI3 kinase assay (Kinase-Glo luminescence), PI3K beta
- condition_set: Enzymatic Data; read-out: PI3K beta IC50 [umol]
pIC50: −log10 of the molar value.
assay_endpoint: pIC50

Guide cases for pIC50, answers given:
[
  {
    "compound": "Nc1ncc(-c2ccc3ncc(-c4ccc(C(=O)NCCN5CCOCC5)cc4F)n3n2)cc1C(F)(F)F [Example 151]",
    "pIC50": 6.85
  },
  {
    "compound": "COc1cc(-c2ccc3ncc(-c4cnc(N)c(C(F)(F)F)c4)n3n2)ccc1OCCCNC(=O)C1CC1 [Example 65]",
    "pIC50": 6.30
  },
  {
    "compound": "COc1ccc(-c2ccc3ncc(-c4cnc(N)c(C(F)(F)F)c4)n3n2)cc1 [Example 46]",
    "pIC50": 5.20
  },
  {
    "compound": "CC(=O)N1CCN(C(=O)c2ccc(-c3cnc4ccc(-c5cnc(N)c(C(F)(F)F)c5)nn34)cc2)CC1 [Example 82]",
    "pIC50": 6.77
  },
  {
    "compound": "COc1cc(-c2cnc3ccc(-c4cnc(N)c(C(F)(F)F)c4)nn23)ccc1C(=O)O [Example 109]",
    "pIC50": 7.21
  }
]

a. Nc1ncc(-c2ccc3ncc(-c4ccc(C(=O)NCCCN5CCOCC5)cc4)n3n2)cc1C(F)(F)F [Example 81]
b. NCCCOc1ccc(-c2ccc3ncc(-c4cnc(N)c(C(F)(F)F)c4)n3n2)cc1OC(F)(F)F [Example 63]
c. CC(=O)NCCn1cc(-c2ccc3ncc(-c4cnc(N)c(C(F)(F)F)c4)n3n2)ccc1=O [Example 76]
Rank the items in ascending order with respect to pIC50. Form entry: ranked labels (order as requested).
c, b, a

###

- study_system: PI3K alfa (Homo sapiens, UniProt P42336)
- Construct: for the p110-a subunit (with a deletion of the first 20 amino acids); His tag (C); made in house; host or cells: baculovirus; Tn5 (Trichoplusia ni) or TiniPro insect cells
- Sequence (P42336 with tags, fused parts or gaps limits assumed): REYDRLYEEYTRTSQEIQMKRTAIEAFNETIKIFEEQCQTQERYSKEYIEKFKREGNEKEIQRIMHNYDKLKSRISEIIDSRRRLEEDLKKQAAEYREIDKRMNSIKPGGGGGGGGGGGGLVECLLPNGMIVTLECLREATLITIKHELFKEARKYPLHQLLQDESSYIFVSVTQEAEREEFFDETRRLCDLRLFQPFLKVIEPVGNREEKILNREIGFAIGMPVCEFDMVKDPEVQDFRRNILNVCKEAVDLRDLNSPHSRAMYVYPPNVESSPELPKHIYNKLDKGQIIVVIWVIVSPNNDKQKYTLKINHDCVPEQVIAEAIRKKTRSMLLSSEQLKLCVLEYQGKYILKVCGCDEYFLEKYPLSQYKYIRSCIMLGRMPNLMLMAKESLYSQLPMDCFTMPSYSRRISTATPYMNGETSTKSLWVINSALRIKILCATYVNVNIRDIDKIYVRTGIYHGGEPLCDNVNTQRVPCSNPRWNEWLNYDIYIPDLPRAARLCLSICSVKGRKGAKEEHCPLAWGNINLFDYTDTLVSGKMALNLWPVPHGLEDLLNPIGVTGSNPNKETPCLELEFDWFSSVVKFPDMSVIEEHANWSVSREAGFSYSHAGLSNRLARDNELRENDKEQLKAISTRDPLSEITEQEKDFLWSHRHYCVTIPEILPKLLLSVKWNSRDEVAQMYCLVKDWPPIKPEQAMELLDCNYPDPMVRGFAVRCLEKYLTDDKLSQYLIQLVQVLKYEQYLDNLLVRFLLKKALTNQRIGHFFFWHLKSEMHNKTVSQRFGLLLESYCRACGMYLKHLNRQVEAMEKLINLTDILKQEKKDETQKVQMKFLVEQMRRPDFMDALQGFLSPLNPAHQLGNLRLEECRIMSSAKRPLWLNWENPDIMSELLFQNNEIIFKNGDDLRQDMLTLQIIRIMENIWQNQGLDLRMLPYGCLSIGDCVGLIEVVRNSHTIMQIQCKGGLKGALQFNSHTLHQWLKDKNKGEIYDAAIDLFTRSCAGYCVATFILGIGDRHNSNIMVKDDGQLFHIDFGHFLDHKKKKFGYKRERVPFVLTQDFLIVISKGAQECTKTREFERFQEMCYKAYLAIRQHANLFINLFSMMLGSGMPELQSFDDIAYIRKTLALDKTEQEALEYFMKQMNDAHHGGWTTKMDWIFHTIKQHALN
- experimental_details: PI3 kinase assay (Kinase-Glo luminescence), PI3K alfa
- Assay type: biochemical
- condition_set: read-out: IC50 (μm) PI3K-alfa
assay_endpoint: IC50 (nM)

Guide cases for IC50, answers given:
[
  {
    "molecule": "COc1ccc(-c2ccc3ncc(-c4ccc(OC)c(OC)c4)n3n2)cc1OC [Example 1]",
    "assay_endpoint": "IC50",
    "recorded_value": 3
  },
  {
    "molecule": "COc1cc(-c2ccc3ncc(-c4ccc(C(N)=O)cc4)n3n2)ccc1OCCCN [Example 17]",
    "assay_endpoint": "IC50",
    "recorded_value": 53
  },
  {
    "molecule": "COc1cc(-c2ccc3ncc(-c4cnc(N)c(C(F)(F)F)c4)n3n2)ccc1OCCCN [Example 14]",
    "assay_endpoint": "IC50",
    "recorded_value": 39
  },
  {
    "molecule": "COc1ccc(-c2ccc3ncc(-c4ccc(S(C)(=O)=O)cc4)n3n2)cc1OC [Example 5]",
    "assay_endpoint": "IC50",
    "recorded_value": 1.64
  },
  {
    "molecule": "COc1ccc(-c2ccc3ncc(-c4ccc(-c5ccoc5)cc4)n3n2)cc1OC [Example 19]",
    "assay_endpoint": "IC50",
    "recorded_value": 120
  }
]

1. COc1ccc(-c2ccc3ncc(-c4ccc(-c5ccc[nH]5)cc4)n3n2)cc1OC [Example 20]
2. Nc1ncc(-c2ccc3ncc(-c4ccc(O)nc4)n3n2)cc1C(F)(F)F [Example 32]
3. Nc1ncc(-c2ccc3ncc(-c4ccc(Nc5nc(-c6ccccc6)cs5)nc4)n3n2)cc1C(F)(F)F [Example 28]
Rank the items in ascending order with respect to IC50. Form entry: ranked labels (order as requested).
2, 3, 1
(2: 4.9 nM, 3: 12 nM, 1: 122 nM)

###

- study_system: PI3K alfa (Homo sapiens, UniProt P42336)
- Construct: for the p110-a subunit (with a deletion of the first 20 amino acids); His tag (C); made in house; host or cells: baculovirus; Tn5 (Trichoplusia ni) or TiniPro insect cells
- experimental_details: PI3 kinase assay (Kinase-Glo luminescence), PI3K alfa
- Type: biochemical
- condition_set: Enzymatic Data; read-out: PI3K alfa IC50 [umol]
pIC50: −log10 of the molar value.
assay_endpoint: pIC50

[
  {
    "molecule": "Nc1ncc(-c2ccc3ncc(-c4ccc(OCCn5cccn5)cc4)n3n2)cc1C(F)(F)F [Example 88]",
    "study_system": "PI3K alfa (Homo sapiens, UniProt P42336)",
    "assay_endpoint": "pIC50",
    "recorded_value": 6.89
  },
  {
    "molecule": "COc1cc(-c2cnc3ccc(-c4cnc(N)c(C(F)(F)F)c4)nn23)ccc1C(=O)N1CCN(Cc2cccnc2)CC1 [Example 117]",
    "study_system": "PI3K alfa (Homo sapiens, UniProt P42336)",
    "assay_endpoint": "pIC50",
    "recorded_value": 8.05
  }
]

1. COc1ccc(-c2ccc3ncc(-c4cnc(N)c(C(F)(F)F)c4)n3n2)cc1 [Example 46]
2. COc1cccc(-c2ccc3ncc(-c4cnc(N)c(C(F)(F)F)c4)n3n2)c1 [Example 77]
3. COc1cc(-c2ccc3ncc(-c4cnc(N)c(C(F)(F)F)c4)n3n2)ccc1OCCN1CCCC1=O [Example 103]
Rank the items in ascending order with respect to pIC50. Form entry: ranked labels (order as requested).
1, 2, 3
(1: 5.79, 2: 6.72, 3: 8.40)

###

- study_system: PI3K delta (Homo sapiens)
- Construct: for the full-length p110-d subunit are generated and fused by overlapping PCR; His tag (C); Tn5 (Trichoplusia ni) or TiniPro insect cells
- Sequence (O00329 with tags, fused parts or gaps limits assumed): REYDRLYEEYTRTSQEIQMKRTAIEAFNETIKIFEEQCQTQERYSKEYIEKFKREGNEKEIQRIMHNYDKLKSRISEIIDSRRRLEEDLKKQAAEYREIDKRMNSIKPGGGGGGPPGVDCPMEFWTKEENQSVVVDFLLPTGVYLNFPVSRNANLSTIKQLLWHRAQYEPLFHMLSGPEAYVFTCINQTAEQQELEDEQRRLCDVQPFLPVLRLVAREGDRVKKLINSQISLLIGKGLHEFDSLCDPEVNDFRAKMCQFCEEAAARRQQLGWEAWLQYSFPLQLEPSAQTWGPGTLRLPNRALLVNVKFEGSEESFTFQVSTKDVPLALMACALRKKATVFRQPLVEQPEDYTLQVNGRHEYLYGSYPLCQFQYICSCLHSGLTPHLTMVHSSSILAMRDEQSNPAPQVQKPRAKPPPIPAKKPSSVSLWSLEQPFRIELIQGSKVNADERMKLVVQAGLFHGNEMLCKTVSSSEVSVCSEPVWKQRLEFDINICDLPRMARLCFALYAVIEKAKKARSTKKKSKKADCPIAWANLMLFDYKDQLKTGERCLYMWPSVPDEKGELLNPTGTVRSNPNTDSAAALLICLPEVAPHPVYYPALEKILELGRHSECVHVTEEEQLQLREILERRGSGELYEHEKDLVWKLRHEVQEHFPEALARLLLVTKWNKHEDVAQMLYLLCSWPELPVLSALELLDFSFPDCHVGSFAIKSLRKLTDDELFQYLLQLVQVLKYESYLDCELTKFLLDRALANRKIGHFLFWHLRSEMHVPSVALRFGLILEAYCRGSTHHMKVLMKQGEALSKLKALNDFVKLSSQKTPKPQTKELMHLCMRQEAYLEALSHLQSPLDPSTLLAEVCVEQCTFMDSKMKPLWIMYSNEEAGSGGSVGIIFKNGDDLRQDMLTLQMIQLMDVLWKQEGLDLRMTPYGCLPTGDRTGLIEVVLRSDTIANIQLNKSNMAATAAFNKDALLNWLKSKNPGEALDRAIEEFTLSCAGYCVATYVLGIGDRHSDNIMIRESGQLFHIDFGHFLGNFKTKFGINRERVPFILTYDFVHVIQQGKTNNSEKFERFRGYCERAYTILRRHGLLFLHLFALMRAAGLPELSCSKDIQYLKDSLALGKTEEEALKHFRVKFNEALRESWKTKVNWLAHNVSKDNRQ
- experimental_details: PI3 kinase assay (Kinase-Glo luminescence), PI3K delta
- condition_set: Enzymatic Data; read-out: PI3K delta IC50 [umol]
pIC50: −log10 of the molar value.
assay_endpoint: pIC50

[
  {
    "compound_structure": "Nc1ncc(-c2ccc3ncc(-c4ccc(C(=O)N5CCN(Cc6cccnc6)CC5)c(F)c4)n3n2)cc1C(F)(F)F",
    "pIC50": 7.85
  },
  {
    "compound_structure": "COc1ccc(-c2ccc3ncc(-c4ccc(N)nc4)n3n2)cc1OC",
    "pIC50": 6.84
  },
  {
    "compound_structure": "c1cnn(CCOc2ccc(-c3ccc4ncc(-c5cnc6[nH]ccc6c5)n4n3)cc2)c1",
    "pIC50": 5.89
  },
  {
    "compound_structure": "CC(C)(C)OC(=O)NCCOc1ccc(-c2ccc3ncc(-c4cnc(N)c(C(F)(F)F)c4)n3n2)cc1",
    "pIC50": 5.40
  },
  {
    "compound_structure": "CC(C)C(=O)NCC1(COc2ccc(-c3ccc4ncc(-c5cnc(N)c(C(F)(F)F)c5)n4n3)cc2)COC1",
    "pIC50": 6.64
  },
  {
    "compound_structure": "Nc1ncc(-c2ccc3ncc(-c4ccc(C(=O)N5CCN(CCO)CC5)c(F)c4)n3n2)cc1C(F)(F)F",
    "pIC50": 7.89
  }
]

1. Nc1ncc(-c2ccc3ncc(-c4ccc5c(cnn5CCN5CCOCC5)c4)n3n2)cc1C(F)(F)F
2. COc1cc(-c2ccc3ncc(-c4cnc(N)c(C(F)(F)F)c4)n3n2)ccc1OCCN
# compare pIC50 for 1 vs 2 ; return the one with the smaller value Select an item and report its label.
2

A. C=CS(=O)(=O)c1ccc(-c2cnc3ccc(-c4cnc(N)c(C(F)(F)F)c4)nn23)cc1
B. COC(=O)NC1(COc2ccc(-c3ccc4ncc(-c5cnc(N)c(C(F)(F)F)c5)n4n3)cc2)COC1
C. Nc1ncc(-c2ccc3ncc(-c4ccc(C(=O)N5CCN(Cc6cccnc6)CC5)cc4)n3n2)cc1C(F)(F)F
D. NCCCOc1ccc(-c2ccc3ncc(-c4cnc(N)c(C(F)(F)F)c4)n3n2)cc1OC(F)(F)F
E. Nc1ncc(-c2cnc3ccc(-c4ccc(OCCn5cccn5)cc4)nn23)cc1C(F)(F)F
Rank the items in ascending order with respect to pIC50. Form entry: ranked labels (order as requested).
E, B, D, C, A

A. COc1cccc(-c2ccc3ncc(-c4cnc5[nH]ccc5c4)n3n2)c1
B. Nc1ncc(-c2ccc3ncc(-c4ccc(C(=O)N5CCN(Cc6ccccn6)CC5)c(F)c4)n3n2)cc1C(F)(F)F
C. Nc1ncc(-c2cnc3ccc(-c4ccc(OCC5(N)COC5)cc4)nn23)cc1C(F)(F)F
Rank the items in ascending order with respect to pIC50. Form entry: ranked labels (order as requested).
A, C, B
(A: 5.98, C: 6.64, B: 7.52)

A. Nc1ncc(-c2ccc3ncc(-c4ccc(S(=O)(=O)N5CCOCC5)cc4)n3n2)cc1C(F)(F)F
B. COc1cc(-c2cnc3ccc(-c4cnc(N)c(C(F)(F)F)c4)nn23)c(F)cc1C(=O)NCCn1ccnc1
C. NCCCOc1ccc(-c2cnc3ccc(-c4cnc(N)c(C(F)(F)F)c4)nn23)cc1OC(F)(F)F
D. COc1ccc(-c2ccc3ncc(-c4cnc(N)cn4)n3n2)cc1OC
E. Nc1ccc(-c2cnc3ccc(-c4ccc(OCCCNC(=O)C5CC5)cc4)nn23)cn1
Falling order of pIC50, please. Form entry: ranked labels (order as requested).
B, A, D, C, E

I. COc1cc(-c2ccc3ncc(-c4cnc(N)c(C(F)(F)F)c4)n3n2)ccc1OCCCNC(=O)C1CC1
II. COc1cccc(-c2ccc3ncc(-c4cnc(N)c(C(F)(F)F)c4)n3n2)c1
# compare pIC50 for I vs II ; return the one with the smaller value Select an item and report its label.
II

P. COc1cc(-c2cnc3ccc(-c4cnc(N)c(C(F)(F)F)c4)nn23)ccc1C(=O)N1CCN(Cc2cccnc2)CC1
Q. COc1ccc(-c2ccc3ncc(-c4ccc(NS(C)(=O)=O)cc4)n3n2)cc1OC
# compare pIC50 for P vs Q ; return the one with the smaller value Select an item and report its label.
Q
(Q: 6.47, P: 8.00)

P. COc1cc(-c2ccc3ncc(-c4ccc(S(=O)(=O)CCN5CCOCC5)cc4)n3n2)ccc1OCCN1CCCC1=O
Q. Nc1ncc(-c2ccc3ncc(-c4ccc(C(=O)NCCN5CCS(=O)(=O)CC5)cc4)n3n2)cc1C(F)(F)F
# compare pIC50 for P vs Q ; return the one with the smaller value Select an item and report its label.
P
(P: 6.37, Q: 8.22)

I. Nc1ncc(-c2cnc3ccc(-c4ccc(OCCN5CCCC5=O)c(F)c4)nn23)cc1C(F)(F)F
II. Nc1ncc(-c2ccc3ncc(-c4ccc(CN5CCC(C(=O)N6CCCC6)CC5)cc4)n3n2)cc1C(F)(F)F
# compare pIC50 for I vs II ; return the one with the smaller value Select an item and report its label.
I
(I: 6.84, II: 7.80)
